target: MyD88^TIR (Homo sapiens, UniProt Q99836); construct: MyD88 (residues 148–296); 6xHis; made in house; host or cells: E. coli BL21 (DE3); assay: T‐Surf phage library (P8 and P3) selection against MyD88^TIR, four rounds, NGS read counts; format: binding; settings: P8_MyD88: rank by count before grouping
Sequence (Q99836 148-296): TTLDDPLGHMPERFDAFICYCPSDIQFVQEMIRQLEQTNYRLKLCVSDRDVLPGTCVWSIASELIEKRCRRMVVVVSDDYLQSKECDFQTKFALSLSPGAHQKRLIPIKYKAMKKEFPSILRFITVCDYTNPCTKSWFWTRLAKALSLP
property_measured: Rank (before)

DPQELEWFYERLVSLF: 745
NDSLFWDRLLYSLHVTE: 270
DPQGLAWFYERLVSLL: 2664

A: DFLLTILEAMKTKNQL
B: NNFSAFLFEALFENGI
C: MFGGDSFHDFLELISM
D: DPQDLDCFYERLVSLL
Prompt: Hi! Can you put these in order of Rank (before), lowest number first? Rank them, then answer with their labels in that order.
Completion: A, B, D, C
(A: 159, B: 240, D: 1082, C: 3656)
